- System: HT29 colon
- run_description: NCI-60 one-dose screen, 48 h
- condition_label: 10 µM unless noted
- Method: Growth inhibition of the HT29 human tumor cell line is measured as a screen for anti-cancer activity. Cells are grown in 96 well plates and exposed to the test compound for 48 hours. Compounds are tested at a single concentration, which is 10^-5 M for most compounds. The reported endpoint is percent growth (GI% or GIPRCNT), where numbers from 0 - 100% represent growth inhibition, and numbers from -100% - 0 represent cell death. For example, a value of 40 represents 60% growth inhibition. […]
This is part of a sample that, as a whole, favours compounds with a hit. Of some 83,000 tested, about 20% had one in any assay. Activity calls are given as the source filed them. The calls were made as follows: active = growth percent below 10; inactive = the rest.
Possible outcomes: 1.0 (active), 0.0 (inactive)

1) COc1ccc2c(=O)c(OC)c(-c3cc(OC)c(OC)c(OC)c3)oc2c1 0.0
2) COc1ccc(NS(=O)(=O)N2CCCCC2)cc1 0.0
3) O=C(Nc1ccccc1OC(=O)c1ccccc1)c1ccccc1 0.0
4) CCCCc1ccc(C(N)=O)nc1 0.0
5) CCOc1cc(/C=C/C(=O)CC(=O)/C=C/c2ccc(OC(=O)CNCCN(CC)CC)c(OCC)c2)ccc1OC(=O)CNCCN(CC)CC 1.0
6) Cc1ccc(C2=Nc3c(ccc4c(C)c(C)c(=O)oc34)OC2)cc1 0.0
7) COc1cnc2c(c1)C(=O)c1c-2n(CCCN2CCOCC2)c(=O)c2cc(F)ccc12 1.0
8) NS(=O)(=O)c1ccc(-n2nc(-c3ccc(Br)cc3)ccc2=O)cc1 0.0
9) C/C(=C\CCc1ccsc1)CC/C=C(\C)CCCN1CCSCC1 0.0
10) COc1ccc2c(c1)CC[C@@H]1[C@@H]2CC[C@]2(C)[C@@H](O)C(=O)C[C@@H]12 0.0
11) CC(=O)c1ccccc1NC(=O)C(C)(c1ccccc1)c1ccccc1 0.0
12) CC[C@@H](C)/C=C(C)/C=C/C(O)=C1\C(=O)N[C@@H](Cc2ccc(OC(=O)[C@@](OC)(c3ccccc3)C(F)(F)F)cc2)C1=O 0.0
13) CCN1CCN(c2nc(NNC(=O)Cc3ccccc3)nc(N3CCN(C(c4ccccc4)c4ccccc4)CC3)n2)CC1 1.0
14) O=C(NC1CCCCC1)c1ccc(Nc2ncnc3c2cnn3-c2ccccc2)cc1 0.0
15) COc1cnc2c(c1)C(=O)c1c-2n(CCCNC(C)C)c(=O)c2cc(F)ccc12 1.0

---

- System: SNB-75 CNS
- run_description: NCI-60 one-dose screen, 48 h (100 = growth as untreated, 0 = no growth, -100 = all killed)
- condition_label: 10 µM unless noted
The panel holds about 83,000 compounds, 20% with a hit somewhere; the sample as a whole holds those more often.
endpoint_name: growth (%)

compound	endpoint_name	assay_value
COc1cc(-c2nc3nc4sc(C)c(C)c4c(=O)n3[nH]2)cc(OC)c1OC	growth	80.1
Cc1ccc(S(=O)(=O)NCCN2c3nc4ccccc4cc3Sc3cc4ccccc4nc32)cc1	growth	-13
CCOc1cc(/C=C/C(=O)CC(=O)/C=C/c2ccc(OC(=O)CNc3nc4ccc(OC)cc4s3)c(OCC)c2)ccc1OC(=O)CNc1nc2ccc(OC)cc2s1	growth	34.1
CC(=O)OCC(=O)[C@@]1(O)CC[C@H]2[C@@H]3CCC4=CC(=O)CC[C@]4(C)[C@@]3(F)[C@@H](O)C[C@@]21C	growth	113
CCOC(=O)Nc1cc(-c2ccc(C)c(NS(C)(=O)=O)c2)nn2c(C)nnc12	growth	1.74
CC(NC(N)=S)c1ccccc1 (stereo not given)	growth	95.1
COc1ccc2c(=O)c(OC)c(-c3cc(OC)c(OC)c(OC)c3)oc2c1	growth	79.5
COc1cc(-c2nnc(-c3nc(-c4cc(OC)c(OC)c(OC)c4)n4ccccc34)o2)ccc1N	growth	75
CC12CCC3C(=CCc4cc(O)ccc43)C1CCC2=O (stereo not given)	growth	104
CCOC(=O)CNC(=O)C1(NC(=O)CNC(=O)OCc2ccccc2)CCCC1	growth	83.9

---

- Test system: HCT-116 colon
- run_description: NCI-60 one-dose screen, 48 h (100 = growth as untreated, 0 = no growth, -100 = all killed)
- condition_label: 10 µM unless noted
This is part of a sample that, as a whole, favours compounds with a hit. Of some 83,000 tested, about 20% had one in any assay.
Collected growth values appear next to each entry.
endpoint_name: growth (%)

1. CCOC(=O)N1CCC(N=C2CSc3nnc(-c4cc(C(F)(F)F)cc(C(F)(F)F)c4)n3N2)CC1 -10.9
2. CC(C)Sc1nc(-c2ccc(Br)cc2)c(C#N)c(N2CCCCC2)n1 100
3. COc1cc(/C=C/c2cc(/C=C/c3ccc(O)c(OC)c3)n(C(=O)Cc3ccccc3)n2)ccc1O 1.23
4. O=C(c1ccc(Cl)cc1)c1ccc(Cl)cc1 110
5. C/C(=C\CCc1ccsc1)CC/C=C(\C)CCCN1CCSCC1 77.7
6. CC(=O)O[C@H]1CC[C@@]2(C)C(=CC[C@@H]3[C@@H]2CC[C@]2(C)C(c4cccnc4)=CC[C@@H]32)C1 54.1

---

- System: SK-MEL-5 melanoma
- run_description: NCI-60 one-dose screen, 48 h (100 = growth as untreated, 0 = no growth, -100 = all killed)
- condition_label: 10 µM unless noted
The panel holds about 83,000 compounds, 20% with a hit somewhere; the sample as a whole holds those more often. The source made the active and inactive calls. Rule for the calls: active = growth percent below 10; inactive = the rest.
Collected growth values appear next to each entry.

molecule	growth
CCCCCc1c(C)[nH]c(/C=C2\N=C(c3ccc[nH]3)C=C2Oc2ccc(Cl)cc2)c1C	-90% [100 µM] (active)
O=C(/C=C/c1ccc(C(F)(F)F)cc1)c1ccc(Nc2nc(NCCO)nc(NCCO)n2)cc1	76.5% (inactive)
COC(=O)[C@H](Cc1cn(C)cn1)NC(=O)[C@H](Cc1ccccc1)NC(=O)Nc1cc(C(F)(F)F)cc(C(F)(F)F)c1	-97.1% [100 µM] (active)
O=C(/C=C/c1ccc([N+](=O)[O-])cc1)c1ccc2c3c(cccc13)CC2	97.8% (inactive)
COc1ccc(C(=O)/C=C/c2ccc(C)cc2)cc1OC	74% (inactive)
COc1ccc2cc(C3=CC(=O)CCC3)ccc2c1	94.3% (inactive)
Clc1ccc2[nH]cc(-c3cncn3CCc3ccccc3)c2c1	10.8% (inactive)
COP(=O)(OC)C(c1ccccc1)(c1ccccc1)c1ccccc1	89.5% (inactive)
c1ccc(Nc2ccc(Nc3nc(-c4ccccc4)nc4ccccc34)cc2)cc1	90.3% (inactive)
CCn1cnc(C[C@H](NC(=O)[C@H](CCCCNC(=O)Nc2cc(C(F)(F)F)cc(C(F)(F)F)c2)NC(=O)Nc2cc(C(F)(F)F)cc(C(F)(F)F)c2)C(=O)OC)c1	-100% [100 µM] (active)
Nc1nc2c(nnn2Cc2ccc(Cl)c(Cl)c2)c(=O)[nH]1	107% (inactive)
COc1cnc2c(c1)C(=O)c1c-2n(CCCn2ccnc2)c(=O)c2cc(F)ccc12	-96.2% (active)
O=C(N/N=C/c1cccc([N+](=O)[O-])c1)c1ccc(Br)o1	97.3% (inactive)
COc1ccc(C2=NN(C(N)=S)C(c3ccc4c(c3)OCO4)C2)cc1 (configuration not stated)	41.5% (inactive)
c1ccc2nc(N/N=C3\CCCCC3C3CCCCC3)ccc2c1 (configuration not stated)	39.7% (inactive)
COc1ccc2c(c1)sc1nc(-c3ccc(N(C)C)cc3)cn12	108% (inactive)
CC(C)N(Cc1ccccc1)c1c(S)ssc1=S	-75.9% (active)
O[N+]1=CC=CCC1=S.On1ccccc1=S.[Zn]	-93.5% (active)
CC(=O)c1nn(-c2ccccc2)c(=Nc2ccccc2)cc1C	98.9% (inactive)
O=C(CSc1nnc(-c2cc(-c3ccccc3)nc3ccccc23)o1)c1ccc(Br)cc1	103% (inactive)
O=C(O)C1CCN(S(=O)(=O)c2ccc(-c3ccccc3)cc2)CC1	108% (inactive)
Cc1ccc(OCC(=O)Nc2ccc(Oc3ccccc3)cc2)c([N+](=O)[O-])n1	44.2% (inactive)
CCCCCCCCN(CCO)CCCCCCCC	98.5% (inactive)
O=C(N/N=C/c1ccc(Cl)cc1Cl)c1ccccc1Nc1cccc(C(F)(F)F)c1	53.5% (inactive)
COc1cnc2c(c1)C(=O)c1c-2n(CCCN2CCNCC2)c(=O)c2cc(F)ccc12	-88.5% (active)
COc1cccc(N2CCN(CC(=O)N3CCN(c4nnc(-c5ccc(Cl)cc5)c(-c5ccc(Cl)cc5)n4)CC3)CC2)c1	48.4% (inactive)
COc1cnc2c(c1)C(=O)c1c-2n(CCCN2CCCC2)c(=O)c2cc(F)ccc12	-95.9% (active)
CCCCN=C(N)c1ccc(OCCSCCOc2ccc(C(N)=NCCCC)cc2)cc1	22.6% (inactive)
O=C(Nc1ccccc1)P(=O)(O)c1ccccc1	102% (inactive)
CC1C(=O)NC2=Nc3ccccc3C(=O)NN21 (configuration not stated)	94.5% (inactive)
O=C(CNC(=O)c1cccc2ccccc12)Nc1ccccc1Oc1ccc(O)cc1	27.7% [5 µM] (inactive)
O=C(CC1Sc2ccccc2NC1=O)NNc1cccc(Cl)c1Cl (configuration not stated)	85.5% (inactive)
COc1ccc([N+](=O)[O-])c(S(=O)(=O)c2ccc(Cl)cc2)n1	91.6% (inactive)
COc1cc(/C=C/C(=O)c2c(C)n([O-])c3ccccc3[n+]2=O)cc(OC)c1OC	21.3% (inactive)
CSc1nc(N)c2c(n1)N(C)C=NS2(=O)=O	104% (inactive)
CCN(CC)CCNCC(=O)Oc1ccc(/C=C/C(=O)CC(=O)/C=C/c2ccc(OC(=O)CNCCN(CC)CC)c(OC)c2)cc1OC	-13.7% (active)
COC(=O)[C@H](Cc1cn(C)cn1)NC(=O)[C@H](C)NC(=O)Nc1cc(C(F)(F)F)cc(C(F)(F)F)c1	-95.4% [100 µM] (active)
